System: SK-MEL-2
measurement protocol: NCI tumour cell line growth inhibition, 48 h
Calls of active or inactive are those of the source. No stated cut-off is given here; in the data, active = GI50 up to about 1.1 µM and inactive = higher.
Exercise: state measured GI50 for each of the compounds provided.

// query GI50 value for entry COc1cc2c(SCCN(C)C)nc3ccccc3c2c2ccccc12
1.87 µM (inactive)

// query GI50 value for entry O=C(c1cccc2ccccc12)C1(Br)S(=O)(=O)OCCOS1(=O)=O
> 100 µM (inactive)

// query GI50 value for entry Nc1ccc(C(=O)c2cn(CCN3CCOCC3)c3ccccc23)c2ccccc12
36.6 µM (inactive)

// query GI50 value for entry CCOC(=O)c1sc2c(c1OC(=O)c1ccc(Cl)cc1Cl)c(=O)n(-c1ccccc1)c(=S)n2-c1ccccc1
3.97 µM (inactive)

// query GI50 value for entry Cc1cn([C@@H]2C[C@@H]2CO)c(=O)[nH]c1=O
> 100 µM (inactive)

// query GI50 value for entry CCN(CC)CCOCC1CCCN2CCCCC12 (stereo not given)
> 100 µM (inactive)

// query GI50 value for entry CC(C)CC1[C@@H](OCc2ccccc2)COS(=O)N1Cc1ccccc1 (stereo not given in full)
31 µM (inactive)

// query GI50 value for entry CCOC(=O)C1=C(O)C(=O)c2cc(C)ccc2C1=O
> 100 µM (inactive)

// query GI50 value for entry COC(=O)[C@H](COC(=O)/C=C/c1ccc(OC(C)=O)c(OC(C)=O)c1)NC(=O)/C=C/c1ccc(OC(C)=O)c(OC(C)=O)c1
18.5 µM (inactive)

// query GI50 value for entry CCOc1cc(-c2nc3ccccn3c2/N=C/c2cc(Br)ccc2O)ccc1O
46.1 µM (inactive)

###

Tested on: SNB-19
measurement protocol: NCI tumour cell line growth inhibition, 48 h
Activity calls are given as the source filed them. Rule as the data show it: active = GI50 up to about 1.1 µM and inactive = higher.
Pick one and only one: 1 for active, 0 for inactive

What classification did C/C(=N\NC(=S)N1CCCCCC1)c1ccccn1 end up with in this test?
1

What classification did O=C(CSCC(=O)N/N=C\c1ccc(F)cc1F)N/N=C\c1ccc(F)cc1F end up with in this test?
0

What classification did Cc1ccc2c(O)cc(-c3cccc(Cl)c3)nc2n1 end up with in this test?
1

What classification did O=C1/C(=C2/C(=O)N(c3ccccc3)c3ccccc32)Nc2ccccc21 end up with in this test?
0

What classification did CC(=O)O[C@H]1C[C@H]2[C@@H]([C@H](OC(C)=O)C[C@@H]3CC4(CC[C@@]32C)OOC2(CCCCC2)OO4)[C@@H]2CC[C@H]([C@H](C)CCC(N)=O)[C@@]12C end up with in this test?
0

What classification did COc1ccc(/N=N/C(=N\c2ccc(Cl)cc2)c2ccc(N(CCC#N)CCC#N)cc2)cc1 end up with in this test?
0

What classification did COc1ccc(/C(Cl)=C(\C=O)c2ccc(Br)cc2)cc1OC end up with in this test?
0

What classification did COC1=CC(=O)C2C(C1=O)[C@@H]1c3ccccc3OC(C)(C)[C@H]21 (some centres undefined) end up with in this test?
0

What classification did Cc1cc(C)c2c(O)c(S(=O)(=O)c3ccc(Cl)cc3)c(=O)oc2c1 end up with in this test?
0

###

Exercise: state measured GI50 for each of the compounds provided.
System: SK-MEL-5
measurement protocol: NCI tumour cell line growth inhibition, 48 h
The source made the active and inactive calls. Rule as the data show it: active = GI50 up to about 1.1 µM and inactive = higher.

// query GI50 value for entry Nc1nc(Cl)cc(NCC2(CO)CC(CCCCc3ccccc3)C2)n1 (stereo unspecified)
3.86 µM (inactive)

// query GI50 value for entry CC(=O)OC1C[C@H]2C(OC(=O)c3ccccc3)C3C4(OC(C)=O)COC4C[C@H](OC(C)=O)[C@@]3(C)C(OC(C)=O)[C@H](OC(C)=O)C(=C1C)C2(C)C (stereo partly specified)
26.3 µM (inactive)

// query GI50 value for entry O=C(CCc1ccc(O)c(O)c1)c1ccc(O)c(O)c1O
17.3 µM (inactive)

// query GI50 value for entry O=C(CCCN1CCC(Nc2ccccc2)(c2nnnn2C2CCCCC2)CC1)c1ccc(F)cc1
1.64 µM (inactive)

// query GI50 value for entry CC(C)N(C(=O)C12C3C4C1C1C4(C#N)C3C12C(=O)O)C(C)C (stereo unspecified)
> 100 µM (inactive)

// query GI50 value for entry COC(=O)Nc1nc2cc(NC(=O)c3ccc(I)cc3)ccc2[nH]1
> 100 µM (inactive)

###

Test system: OVCAR-3
measurement protocol: NCI tumour cell line growth inhibition, 48 h
The source made the active and inactive calls. Rule as the data show it: active = GI50 up to about 1.1 µM and inactive = higher.
Pick one and only one: T for active, F for inactive

What classification did O[C@]12CCCC[C@H]1CCC2 end up with in this test?
F

What classification did O=C1CCCNn2c(nc3ncccc3c2=O)N1 end up with in this test?
F

What classification did Nc1nc(O)c2c(n1)NCN(CCCN1CCOCC1)C2 end up with in this test?
F

What classification did COC(=O)/C=C/c1ccc2nncnc2c1.COC(=O)/C=C\c1ccc2nncnc2c1 end up with in this test?
F

What classification did Cc1c2cc[n+](C)cc2c(C)c2c1[nH]c1ccc(Oc3ccccc3)cc12 end up with in this test?
F

What classification did CSc1cc(Cl)c(C)cc1S(=O)(=O)NC(=O)NNc1ccc(C)cc1 end up with in this test?
F

What classification did CCOP(=O)(OCC)/C(C#N)=C\c1ccc(OC(C)=O)cc1 end up with in this test?
F

What classification did CCOP(=O)(OCC)/C(F)=C/c1ccccc1 end up with in this test?
F

What classification did SC1=NC2=C(CSC/C2=C\c2cccc(Br)c2)C(c2cccc(Br)c2)N1 (stereo not drawn) end up with in this test?
F

What classification did CC(=O)NNc1nc(C)c(C(/C=C/c2cccc([N+](=O)[O-])c2)=N/NC(=S)NN)s1 end up with in this test?
F

What classification did C[N+](C)(C)CC1CCCC1=O (stereo not drawn) end up with in this test?
F

What classification did CC(=O)O[C@H]1C[C@H]2[C@@H]([C@H](OC(C)=O)C[C@@H]3CC4(CC[C@@]32C)OOC2(CCCCC2)OO4)[C@@H]2CC[C@H]([C@H](C)CCC(N)=O)[C@@]12C end up with in this test?
F

What classification did CCOC(=O)c1c2c(n(-c3ccc(OC)cc3)c1C)C(=O)C(=O)c1ccccc1-2 end up with in this test?
T

###

Test system: MCF7
measurement protocol: NCI tumour cell line growth inhibition, 48 h
The source made the active and inactive calls. Cut-off read from the data, not from the text of the source: active = GI50 up to about 1.1 µM and inactive = higher.
Exercise: state measured GI50 for each of the compounds provided.

Hi! What's the reported GI50 for c1ccc(CSc2nnc3c4ccccc4c4ccccc4c3n2)cc1 on MCF7?
29.1 µM (inactive)

Hi! What's the reported GI50 for Cn1c(=O)c2[nH]c(N/N=C3/SCC(=O)N3Cc3ccccc3)nc2n(C)c1=O on MCF7?
19.4 µM (inactive)

Hi! What's the reported GI50 for CCN(CC)CCNc1nc(N)c(C#N)c(C#N)c1C#N on MCF7?
> 10 µM (inactive)

Hi! What's the reported GI50 for Cc1ccccc1Nc1nc(NNC(=O)Cc2ccccc2)nc(NNC(=O)c2ccncc2)n1 on MCF7?
> 10 µM (inactive)

Hi! What's the reported GI50 for COc1ccc(-c2cc(-c3cc(C)cc(Br)c3O)no2)cc1 on MCF7?
15.7 µM (inactive)

Hi! What's the reported GI50 for CC(=O)NNc1nc(C)c(C(/C=C/c2cccc([N+](=O)[O-])c2)=N/NC(=S)NN)s1 on MCF7?
> 100 µM (inactive)

Hi! What's the reported GI50 for O=C(C/C(=N/O)C(=O)NC1=C(Cl)C(=O)c2ccccc2C1=O)CC(c1ccccc1)c1c(O)c2ccccc2oc1=O (stereo not given) on MCF7?
6.85 µM (inactive)

Hi! What's the reported GI50 for CCOC(=O)Cn1nc2ccc(Nc3nc4ccccc4nc3C(=O)OCC)cc2n1 on MCF7?
76.4 µM (inactive)

Hi! What's the reported GI50 for COC(=O)Nc1nc2cc(NC(=O)c3ccc(I)cc3)ccc2[nH]1 on MCF7?
> 100 µM (inactive)

Hi! What's the reported GI50 for O=C1C2=Cc3ccccc3CCN2c2ccc([N+](=O)[O-])cc21 on MCF7?
2.92 µM (inactive)

Hi! What's the reported GI50 for C[N+](C)(C)CC(=O)N/N=C(\C(=O)NC1=C(Cl)C(=O)c2ccccc2C1=O)C(C#N)c1nc(-c2ccc([N+](=O)[O-])cc2)cs1 (stereo not given) on MCF7?
5.41 µM (inactive)

Hi! What's the reported GI50 for C[C@]12CC[C@@H]3c4ccc(OS(N)(=O)=O)cc4CC[C@H]3[C@@H]1CCC2=O [EMATE] on MCF7?
36.5 µM (inactive)

Hi! What's the reported GI50 for CC(=O)O[C@H]1C[C@H]2[C@@H]([C@H](OC(C)=O)C[C@@H]3CC4(CC[C@@]32C)OOC2(CCCCC2)OO4)[C@@H]2CC[C@H]([C@H](C)CCC(N)=O)[C@@]12C on MCF7?
2.61 µM (inactive)

Hi! What's the reported GI50 for Nc1nc(Cl)cc(NCC2(CO)CC(CCCCc3ccccc3)C2)n1 (stereo not given) on MCF7?
7.55 µM (inactive)

Hi! What's the reported GI50 for Oc1cnc2c(O)cccc2c1 [JINEOL] on MCF7?
30.7 µM (inactive)

Hi! What's the reported GI50 for Cc1ccc2nc3c(C(=O)NCCN(C)C)cccc3cc2c1 on MCF7?
2.81 µM (inactive)

Hi! What's the reported GI50 for CN1CN(c2ccccc2)C2(CCN(Cc3csc4ccccc34)CC2)C1=O on MCF7?
11.6 µM (inactive)

Hi! What's the reported GI50 for C=C1C(=O)O[C@@H]2C[C@@]3(C)CCC[C@H](C)C3=C[C@H]12 [HELENINE] on MCF7?
4.58 µM (inactive)

Hi! What's the reported GI50 for O=C1OC2C(O)COC2(O)C1(O)C(C[N+](=O)[O-])c1ccc(Cl)cc1 (stereo not given) on MCF7?
1.98 µM (inactive)

Hi! What's the reported GI50 for CCOC(=O)NC(Nc1ccc([N+](=O)[O-])cc1)(C(F)(F)F)C(F)(F)F on MCF7?
60.7 µM (inactive)
